target: human GPR43 (Homo sapiens (Human)); assay: Ca-Flux functional assay: determination of agonist/positive allosteric modulator (PAM) activity; settings: CHO-K1 Gα16 cells stably expressing human GPR43; compound added with EC20 sodium acetate; intracellular Ca2+ by FLIPR; does not distinguish agonist from PAM
measured_property: log10 of EC50 (log10 of the value in nM)

| compound | measured_property | endpoint_value |
| --- | --- | --- |
| Nc1[nH]c2c(Br)cncc2c1S(=O)(=O)c1ccccc1 | log10 of EC50 | 2.80 |
| CCC(CC)Oc1ncnc2c(S(=O)(=O)c3ccccc3)c(N)[nH]c12 | log10 of EC50 | 1.23 |
| Cc1nc(N2CCO[C@@H](C)C2)c2[nH]c(N)c(S(=O)(=O)c3ccccc3)c2n1 | log10 of EC50 | 1.11 |
| Cc1nc(N2CCOC3(CCCC3)C2)c2[nH]c(N)c(S(=O)(=O)c3ccccc3F)c2n1 | log10 of EC50 | 0.78 |
| Nc1[nH]c2c(C3=CCCCC3)ncnc2c1S(=O)(=O)c1ccccn1 | log10 of EC50 | 2.50 |
| Cc1nc(N2CCO[C@@H](C)C2)c2[nH]c(N)c(S(=O)(=O)c3ccccc3Cl)c2n1 | log10 of EC50 | 1.15 |
| Nc1[nH]c2c(OCC3CCOC3)ncnc2c1S(=O)(=O)c1ccccc1 (centres unmarked) | log10 of EC50 | 3.47 |
| Cc1nc(N2CCOC(C)(C)C2)c2[nH]c(N)c(S(=O)(=O)c3ccc(Cl)cc3F)c2n1 | log10 of EC50 | 0.60 |
| CCN(CC)c1ncnc2c(S(=O)(=O)c3ccccc3)c(N)[nH]c12 | log10 of EC50 | 1.79 |
| Nc1[nH]c2c(O[C@@H]3CCOC3)ncnc2c1S(=O)(=O)c1ccccc1 | log10 of EC50 | 3.72 |
| Cc1nc(N2C[C@@H](C)OC[C@H]2C)c2[nH]c(N)c(S(=O)(=O)c3ccccc3)c2n1 | log10 of EC50 | 0.78 |
| Nc1[nH]c2c(O[C@H]3CCOC3)ncnc2c1S(=O)(=O)c1ccccc1 | log10 of EC50 | 3.49 |
| CN(CC1CCCCO1)c1ncnc2c(S(=O)(=O)c3ccccc3)c(N)[nH]c12 (centres unmarked) | log10 of EC50 | 3.15 |
| Nc1[nH]c2c(C3=CCCCC3)ncnc2c1S(=O)(=O)CC1CCOCC1 | log10 of EC50 | 3.70 |
| COc1ccc(S(=O)(=O)c2c(N)[nH]c3c(C4CCCC4)ncnc23)cc1 | log10 of EC50 | 2.07 |
| Nc1[nH]c2c(C3=CCCCC3)ncnc2c1S(=O)(=O)c1ccc(F)cc1 | log10 of EC50 | 1.66 |
| CC1(C)CN(c2ncnc3c(S(=O)(=O)c4ccccc4)c(N)[nH]c23)CCO1 | log10 of EC50 | 1.46 |

###

Reported values of EC50 for individual entries
target: human GPR43 (Homo sapiens (Human), UniProt O15552); assay: Ca-Flux functional assay: determination of agonist/positive allosteric modulator (PAM) activity; conditions: CHO-K1 Gα16 cells stably expressing human GPR43; compound added with EC20 sodium acetate; intracellular Ca2+ by FLIPR; does not distinguish agonist from PAM
Sequence (O15552 whole entry): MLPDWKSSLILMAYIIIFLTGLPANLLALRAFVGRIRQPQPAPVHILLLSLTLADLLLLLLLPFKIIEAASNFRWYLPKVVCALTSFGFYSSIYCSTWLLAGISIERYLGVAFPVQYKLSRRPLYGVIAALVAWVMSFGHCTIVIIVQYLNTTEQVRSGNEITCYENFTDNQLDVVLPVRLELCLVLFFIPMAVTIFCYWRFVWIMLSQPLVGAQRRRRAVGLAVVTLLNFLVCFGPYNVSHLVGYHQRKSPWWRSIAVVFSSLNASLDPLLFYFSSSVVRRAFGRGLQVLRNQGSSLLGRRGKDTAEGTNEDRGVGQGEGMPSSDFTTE

| molecule | EC50, nM |
| --- | --- |
| Cc1nc(N2CCCC(C)C2)c2[nH]c(N)c(S(=O)(=O)c3ccccc3)c2n1 (stereo not shown) | 32 |
| CN(CC(F)F)c1ncnc2c(S(=O)(=O)c3ccccc3)c(N)[nH]c12 | 162 |
| CC(Oc1ncnc2c(S(=O)(=O)c3ccccc3)c(N)[nH]c12)C1CC1 (stereo not shown) | 40 |
| Cc1nc(OCC2CC2)c2[nH]c(N)c(S(=O)(=O)c3cccc(F)c3)c2n1 | 475 |
| CC1CN(c2ncnc3c(S(=O)(=O)c4ccccc4)c(N)[nH]c23)CCO1 (stereo not shown) | 43 |
| Nc1[nH]c2c(C3CCCCC3)ncnc2c1S(=O)(=O)c1ccc(OC(F)F)cc1 | 87 |
| Cc1nc(OC2CCC(F)(F)CC2)c2[nH]c(N)c(S(=O)(=O)c3ccccc3)c2n1 | 29 |
| CC1CC1COc1ncnc2c(S(=O)(=O)c3ccccc3)c(N)[nH]c12 (stereo not shown) | 78 |
| Nc1[nH]c2cc(C3=CCCCC3)cnc2c1S(=O)(=O)c1ccccc1 | 288 |
| COc1ccc(S(=O)(=O)c2c(N)[nH]c3c(C4CCCCC4)ncnc23)cc1 | 80 |
| Cc1nc(OC2CCCC2)c2[nH]c(N)c(S(=O)(=O)c3ccccc3)c2n1 | 100 |
| CSc1nc(N2CCOC(C)C2)c2[nH]c(N)c(S(=O)(=O)c3ccccc3)c2n1 (stereo not shown) | 18 |
| Cc1nc(N2CCOC(C)(C)C2)c2[nH]c(N)c(S(=O)(=O)c3cccc(F)c3)c2n1 | 43 |
| CC1CN(c2ncnc3c(S(=O)(=O)Cc4ccccc4)c(N)[nH]c23)CCO1 (stereo not shown) | 5520 |
| COc1ccc(S(=O)(=O)c2c(N)[nH]c3c(C4=CCCCC4)ncnc23)cc1 | 25 |
| Nc1[nH]c2c(N3CCOC4(CC4)C3)ncnc2c1S(=O)(=O)c1ccccc1 | 23 |
| CN(c1ncnc2c(S(=O)(=O)c3ccccc3)c(N)[nH]c12)C1CC1 | 648 |
| Cc1nc(COc2ncnc3c(S(=O)(=O)c4ccccc4)c(N)[nH]c23)c(C)o1 | 6260 |
| Nc1[nH]c2c(OCC3CC(F)(F)C3)ncnc2c1S(=O)(=O)c1ccccc1 | 134 |
| Cc1nc(N2CCOC(C)C2)c2[nH]c(N)c(S(=O)(=O)c3ccccc3F)c2n1 (stereo not shown) | 8 |
| Cc1nc(N2CCO[C@H](C(F)(F)F)C2)c2[nH]c(N)c(S(=O)(=O)c3cc(F)ccc3F)c2n1 | 3 |
| Nc1[nH]c2cc(Cl)cnc2c1S(=O)(=O)c1ccccc1 | 626 |
| Cc1nc(OC2CCC2)c2[nH]c(N)c(S(=O)(=O)c3ccccc3)c2n1 | 67 |
| CCN(CC1CCOCC1)c1ncnc2c(S(=O)(=O)c3ccccc3)c(N)[nH]c12 | 2660 |
| CC1(C)CN(c2ccnc3c(S(=O)(=O)c4ccccc4)c(N)[nH]c23)CCO1 | 40 |
| COc1ccc(S(=O)(=O)c2c(N)[nH]c3c(C4=CCCCC4)ncnc23)cn1 | 78 |
| Nc1[nH]c2c(C3CCCCC3)ncnc2c1S(=O)(=O)c1cccc(F)c1 | 80 |
| Cc1nc(N2CCOC(C)(C)C2)c2[nH]c(N)c(S(=O)(=O)c3c(F)cccc3F)c2n1 | 9 |
| Nc1[nH]c2c(C3CCCCC3)ncnc2c1S(=O)(=O)c1ccc(F)c(F)c1 | 182 |
| Nc1[nH]c2c(N3CCC(F)(F)CC3)ncnc2c1S(=O)(=O)c1ccccc1F | 9 |
| CC[C@H](C)Oc1nc(C)nc2c(S(=O)(=O)c3ccccc3)c(N)[nH]c12 | 64 |
| Nc1[nH]c2c(N(CC3CC3)CC3CCCO3)ncnc2c1S(=O)(=O)c1ccccc1 (stereo not shown) | 125 |
| CC1CN(c2ncnc3c(S(=O)(=O)C4CCN(C(=O)OCc5ccccc5)CC4)c(N)[nH]c23)CCO1 (stereo not shown) | 2640 |
| Nc1[nH]c2c(C3=CCCCC3)ncnc2c1S(=O)(=O)c1ccc(OC(F)F)cc1 | 52 |
